Parameter: log10 of IC50. Scope: all listed entries.
# TARGET DESC: PLK4 (h) (Homo sapiens, UniProt O00444)
# Sequence (O00444 whole entry): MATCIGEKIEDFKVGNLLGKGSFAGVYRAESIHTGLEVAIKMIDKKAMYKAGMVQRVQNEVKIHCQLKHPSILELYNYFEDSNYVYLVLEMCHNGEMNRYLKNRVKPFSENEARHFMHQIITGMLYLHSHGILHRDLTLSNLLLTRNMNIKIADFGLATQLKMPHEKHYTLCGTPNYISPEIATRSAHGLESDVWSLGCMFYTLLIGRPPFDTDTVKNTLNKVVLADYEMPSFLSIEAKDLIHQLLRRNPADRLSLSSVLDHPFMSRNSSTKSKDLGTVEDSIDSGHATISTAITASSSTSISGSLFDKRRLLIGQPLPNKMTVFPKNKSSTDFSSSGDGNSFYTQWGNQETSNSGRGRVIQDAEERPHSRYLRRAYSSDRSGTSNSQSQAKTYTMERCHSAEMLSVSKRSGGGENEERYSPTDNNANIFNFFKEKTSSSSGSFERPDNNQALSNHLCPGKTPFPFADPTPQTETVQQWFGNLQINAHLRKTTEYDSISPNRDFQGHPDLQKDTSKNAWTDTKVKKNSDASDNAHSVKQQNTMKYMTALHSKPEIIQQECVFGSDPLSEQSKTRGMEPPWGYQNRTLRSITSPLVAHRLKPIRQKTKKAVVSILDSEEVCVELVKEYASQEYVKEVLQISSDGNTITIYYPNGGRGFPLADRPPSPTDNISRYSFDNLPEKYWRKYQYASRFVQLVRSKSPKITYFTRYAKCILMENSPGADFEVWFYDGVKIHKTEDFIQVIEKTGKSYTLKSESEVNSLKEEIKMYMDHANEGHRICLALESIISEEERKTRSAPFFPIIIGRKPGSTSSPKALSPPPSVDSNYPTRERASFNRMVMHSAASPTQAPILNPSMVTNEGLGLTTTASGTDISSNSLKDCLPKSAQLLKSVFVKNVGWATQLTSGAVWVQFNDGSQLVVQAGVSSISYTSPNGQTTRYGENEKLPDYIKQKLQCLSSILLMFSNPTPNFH
# METHOD NOTES: PLK-4 human kinase assay (SPA)
# Type: biochemical
# EXPERIMENTAL CONTEXT: read-out: PLK4 pIC50 (converted)
Scale: decimal log of IC50, IC50 in µM.

Observe how each entry below is paired with its result.
CN1CCCNc2ncnc3c2/C(=C/Nc2ccc(NCc4ccccc4)c(c2)OCCCC1=O)C(=O)N3 : -0.39
COc1cc2cc(c1OC)CN(C)CCCCC(=O)N(C)CCCNc1ncnc3c1/C(=C/N2)C(=O)N3 : 0.43
COc1ccc2cc1CN(C)CCCCC(=O)N(C)CCCNc1ncnc3c1/C(=C/N2)C(=O)N3 : 0.75
COc1ccc2cc1OCCCCCC(=O)N1CCN(CC1)c1ncnc3c1/C(=C/N2)C(=O)N3 : 0.68
CN1CCNc2ncnc3c2/C(=C/Nc2ccc(Cl)c(c2)OCCCCC1=O)C(=O)N3 : 0.54

Moving on to another compound below.
Task: Item: COc1ccc2cc1CN(C)CCCCC(=O)N(C)CCNc1ncnc3c1/C(=C/N2)C(=O)N3 Test system: PLK4 (h) (Homo sapiens, UniProt O00444) Read-out: log10 of IC50 Value: ?
Output: 0.77

###

# TARGET DESC: PLK4 (h) (Homo sapiens, UniProt O00444)
# METHOD NOTES: PLK-4 human kinase assay (SPA)
# Format: biochemical
# EXPERIMENTAL CONTEXT: read-out: PLK4 pIC50 (converted)
# key: entry, value: IC50

CN1CCNC(=O)CCCCCCOc2cccc(c2)N/C=C2\C(=O)Nc3ncnc1c32 [Compound 36] : 2.24 µM
CN1CCNc2ncnc3c2/C(=C/Nc2cccc(c2)OCCCCC1=O)C(=O)N3 [Compound 42] : 1.7 µM
COc1ccc2cc1OCCCCCC(=O)N(C)CCNc1ncnc3c1/C(=C/N2)C(=O)N3 [Compound 37] : 0.55 µM

Task: Find the recorded IC50 belonging to COc1cc2cc(c1OC)CN(C)CCCCC(=O)N(C)CCNc1ncnc3c1/C(=C/N2)C(=O)N3 [Compound 119] and report it.
Output: 7.41 µM

Task: What value of IC50 has been reported for the following compound? COc1cc2cc(c1OC)CN(C)CC(=O)N(C)CCN(C)CCNc1ncnc3c1/C(=C/N2)C(=O)N3 [Compound 155]
Output: 8.71 µM

Task: What does the data say about its IC50? Entry: CN1CCCCC(=O)N(C)CCNc2ncnc3c2/C(=C/Nc2ccc(N4CCOCC4)c(c2)C1)C(=O)N3 [Compound 93]
Output: 7.24 µM

Task: // returns reported IC50 for input CN1CC(=O)N2CCN(CC2)c2cccc3c2/C(=C/Nc2cccc(c2)S1(=O)=O)C(=O)N3 [Compound 2]
Output: 4.57 µM

Task: Find the recorded IC50 belonging to CN1CCN(c2ccc3cc2CN(C)CCCC(=O)N(C)CCCNc2ncnc4c2/C(=C/N3)C(=O)N4)CC1 [Compound 140] and report it.
Output: 0.525 µM

###

Listing of recorded CDK1 pIC50 by entry.
# TARGET DESC: CDK1/CyclinB (h) (Homo sapiens, UniProt P06493)
# Sequence (P06493 whole entry): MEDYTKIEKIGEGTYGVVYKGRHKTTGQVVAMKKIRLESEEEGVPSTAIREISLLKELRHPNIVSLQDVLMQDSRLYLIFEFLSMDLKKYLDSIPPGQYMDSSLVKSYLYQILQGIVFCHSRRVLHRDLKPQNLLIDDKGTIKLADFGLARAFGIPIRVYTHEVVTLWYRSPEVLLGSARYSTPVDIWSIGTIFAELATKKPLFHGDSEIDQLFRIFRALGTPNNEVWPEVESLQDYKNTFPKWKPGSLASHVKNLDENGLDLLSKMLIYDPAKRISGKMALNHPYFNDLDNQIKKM
# Sequence (P14635 whole entry partner): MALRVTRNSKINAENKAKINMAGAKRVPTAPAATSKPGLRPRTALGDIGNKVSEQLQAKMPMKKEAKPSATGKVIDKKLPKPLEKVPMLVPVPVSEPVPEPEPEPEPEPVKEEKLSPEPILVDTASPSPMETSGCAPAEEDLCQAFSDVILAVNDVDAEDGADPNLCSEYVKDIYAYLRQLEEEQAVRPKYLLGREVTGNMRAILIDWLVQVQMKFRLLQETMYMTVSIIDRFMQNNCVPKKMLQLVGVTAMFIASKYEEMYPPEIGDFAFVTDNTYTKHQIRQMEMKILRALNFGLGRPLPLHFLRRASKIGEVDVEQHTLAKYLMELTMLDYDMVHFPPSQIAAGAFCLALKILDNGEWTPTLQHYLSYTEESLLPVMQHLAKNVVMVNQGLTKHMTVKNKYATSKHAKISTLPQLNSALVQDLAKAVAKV
# METHOD NOTES: CDK1/CyclinB human kinase assay (FRET)
# Assay type: biochemical
# Description: The in vitro inhibition of a panel of kinases was assessed using either the scintillation proximity assay (SPA) as described by Cook, N. D. et al., Advances in Experimental Medicine and Biology (1991), 36; p. 525-528; or the Fluorescence Resonance Energy Transfer (FRET) technology as described by Rodems, S. M. et al., Assay Drug Develop. Technol. (2002), 1; p. 9-19. […]

COc1ccc2cc1OCCCCCCC(=O)N(C)CCNc1ncnc3c1C(=CN2)C(=O)N3 (mixture of isomers) : <5
CN1CCCNc2ncnc3c2C(=CNc2cccc(c2)OCCCCCC1=O)C(=O)N3 (mixture of isomers) : 5.56
CN1CCN(c2ccc3cc2OCCCCC(=O)N(C)CCNc2ncnc4c2C(=CN3)C(=O)N4)CC1 (mixture of isomers) : <5

Task: For the record COc1ccc2cc1OCCCCC(=O)NCCN(C)c1ncnc3c1C(=CN2)C(=O)N3 (mixture of isomers) , what value of CDK1 pIC50 is listed for CDK1/CyclinB (h) (Homo sapiens, UniProt P06493)?
Output: <5
